Can you tell me Emax for the items I'm about to list?
molecular target: Cannabinoid receptor 1 (Rattus norvegicus); experiment: […] [35S]GTP-gamma-S from rat cerebellar CB1 receptor; type: functional; settings: Wistar
Answers are plain numbers, in %.

Example cases with answers are listed next.
>  <Structure>
CCCCC/C=C\C/C=C\C/C=C\C/C=C\CCCNC(=O)CCC

>  <Measured number>
210

$$$$
>  <Structure>
CCCCCCC(C)(C)/C=C\C/C=C\C/C=C\C/C=C\CCCOC(CO)CO

>  <Measured number>
474

$$$$
>  <Structure>
CCCCC/C=C\C/C=C\C/C=C\C/C=C\CCCNC(=O)CC

>  <Measured number>
260

$$$$
>  <Structure>
CCCC(C)(C)c1ccc2c(c1)OC(C)(C)[C@@H]1CC=C(C)C[C@@H]21

>  <Measured number>
158

$$$$
>  <Structure>
CCCCC/C=C\C/C=C\C/C=C\C/C=C\CCCC(=O)NC1CC1

>  <Measured number>
351

$$$$

For the molecule shown here, CCCCC/C=C\C/C=C\C/C=C\C/C=C\CCCCNC(=O)CCO , give the reported Emax. 286

---

molecular target: Cannabinoid receptor 1 (Rattus norvegicus, UniProt P20272); assay: […] [35S]GTP-gamma-S from rat cerebellar CB1 receptor; assay type: functional, Wistar
Sequence (P20272 whole entry): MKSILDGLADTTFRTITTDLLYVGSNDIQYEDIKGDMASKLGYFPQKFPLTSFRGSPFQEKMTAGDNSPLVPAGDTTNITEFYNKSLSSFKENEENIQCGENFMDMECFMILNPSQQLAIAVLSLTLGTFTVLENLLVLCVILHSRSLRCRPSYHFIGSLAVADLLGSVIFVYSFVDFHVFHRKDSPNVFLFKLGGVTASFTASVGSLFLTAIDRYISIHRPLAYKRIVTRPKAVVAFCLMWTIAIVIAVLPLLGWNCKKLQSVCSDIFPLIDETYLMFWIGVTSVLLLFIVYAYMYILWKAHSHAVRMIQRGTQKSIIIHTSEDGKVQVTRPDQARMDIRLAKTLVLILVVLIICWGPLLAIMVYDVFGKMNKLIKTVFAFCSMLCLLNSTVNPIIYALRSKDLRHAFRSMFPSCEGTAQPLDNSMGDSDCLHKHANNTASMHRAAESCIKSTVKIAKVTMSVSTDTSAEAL
Can you tell me pEC50 for the items I'm about to list?
Numbers only, as −log10 of the molar value.

Need pEC50 for each of these compounds.
1. CCCCC/C=C\C/C=C\C/C=C\C/C=C\CCCC(=O)NC1CC1
2. CCCCCCC(C)(C)/C=C\C/C=C\C/C=C\C/C=C\CCCCOC(CO)CO
3. CCCCC/C=C\C/C=C\C/C=C\C/C=C\CCCNC(=O)CC
4. CCCCCCC(C)(C)/C=C\C/C=C\C/C=C\C/C=C\CCCOC(CO)CO
5. CCCCC/C=C\C/C=C\C/C=C\C/C=C\CCCNC(=O)CCO
6. CCCCCCC(C)(C)/C=C\C/C=C\C/C=C\C/C=C\CCCC(=O)OC(CO)CO

6.40
4.40
5.70
4.30
4.80
4.30
